meta.source: the supplement of paper PMC9170038

apparent KD of MS2 coat protein values, listed per item
# Tested on: MS2 coat protein
# TEST SUMMARY: apparent KD of MS2 coat protein; designed switch direction (-1 OFF switch, 1 ON switch): -1; higher = weaker reporter binding
# CONDITION DETAILS: input ligand: FMN 200 uM
MEASURED QUANTITY: apparent KD of MS2 coat protein (µM)

- SEQ STRING: "CGUAAGGUAGGAUAUACAUGAGGAUCACCCAUGUCCCACCCGUUACCUAUGACCAUAUGUAGAAGGACCAAUGC [Exy#10] (Eterna round: R97, puzzle: Exclusion 3)"
  MEASURED QUANTITY: "apparent KD of MS2 coat protein"
  TEST VALUE: 0.0207
- SEQ STRING: "ACAAGCUUAAAAGGUGAUAACAUGAGGAUCACCCAUGUUCGUCUUAUAAAAAUAAAAAUAAAAAAUAAAAAAUAAAA [Sensor V2: 61] (Eterna round: R96, puzzle: Sensor v2, turn-off variant)"
  MEASURED QUANTITY: "apparent KD of MS2 coat protein"
  TEST VALUE: 0.0231
- SEQ STRING: "AGGUGUAGAGGAUAUCUCUUCUCUCACAUGAGGAUCACCCAUGUCCUGGUCACCAAGGAGAGAGAAGGCUACACCA [Omei Ex5 D9] (Eterna round: R97, puzzle: Exclusion 5)"
  MEASURED QUANTITY: "apparent KD of MS2 coat protein"
  TEST VALUE: 0.0564
- SEQ STRING: "AAAACCAGAGGAUAUGCGCAUAGAUAAGACUUUGUUUCUUAACAUGAGGAUCACCCAUGUAGAAGGCUGUAAAA [Ex2 #71] (Eterna round: R97, puzzle: Exclusion 2)"
  MEASURED QUANTITY: "apparent KD of MS2 coat protein"
  TEST VALUE: 0.0206
- SEQ STRING: "AAUUUAUGAGGAUAUACAGUGUAAAACAUGAGGAUCACCCAUGUUCUUCAAUUAGUAUUUGUAGAAGGCAUAUGUA [JR_Ex5_Sub095] (Eterna round: R97, puzzle: Exclusion 5)"
  MEASURED QUANTITY: "apparent KD of MS2 coat protein"
  TEST VALUE: 0.0172
- SEQ STRING: "UAACAAGCUUAAAGAUCCUACAUGAGGAUCACCCAUGUGCUCGUCUUAUAACGUACUGUGACGAAAGUCACGGUACG [JL TOV1 3.14] (Eterna round: R97, puzzle: Sensor, turn-off variant 1)"
  MEASURED QUANTITY: "apparent KD of MS2 coat protein"
  TEST VALUE: 0.348
- SEQ STRING: "UCAACGCAAGGAUAUACUUGCGGUGAUGUUCGAAUUCUUCUACUUGAGGAUCACCCAAGUAGAAGGUGCGGUGA [jl-ex2.4.64 ViennaUCT mod] (Eterna round: R97, puzzle: Exclusion 2)"
  MEASURED QUANTITY: "apparent KD of MS2 coat protein"
  TEST VALUE: 0.014
- SEQ STRING: "GGAUAUAACGUAGGAUAUGAGAGAAACAGACGAUCAGAAGGACGACAUGAGGAUCACCCAUGUGAUCUAUCAAUAUUAUACAUG [Prohibition 97 - Jieux - Exclusion NG 1] (Eterna round: R96, puzzle: Exclusion NG 1)"
  MEASURED QUANTITY: "apparent KD of MS2 coat protein"
  TEST VALUE: 0.446
- SEQ STRING: "CUGAGUUAAGGAUAUACAUGAGGAUCACCCAUGUAAAGUAGCUUGCGUACAGGCAGAUGUAGAAGGUAAUUCGG [Mod of JL 8 - Jieux - Exclusion 3] (Eterna round: R97, puzzle: Exclusion 3)"
  MEASURED QUANTITY: "apparent KD of MS2 coat protein"
  TEST VALUE: 0.0372
